Values were extracted from patent EP2140864A2.

Target: human 5HT1E (Homo sapiens, UniProt P28566)
Construct: expressed in transfected cells
Sequence (P28566 whole entry): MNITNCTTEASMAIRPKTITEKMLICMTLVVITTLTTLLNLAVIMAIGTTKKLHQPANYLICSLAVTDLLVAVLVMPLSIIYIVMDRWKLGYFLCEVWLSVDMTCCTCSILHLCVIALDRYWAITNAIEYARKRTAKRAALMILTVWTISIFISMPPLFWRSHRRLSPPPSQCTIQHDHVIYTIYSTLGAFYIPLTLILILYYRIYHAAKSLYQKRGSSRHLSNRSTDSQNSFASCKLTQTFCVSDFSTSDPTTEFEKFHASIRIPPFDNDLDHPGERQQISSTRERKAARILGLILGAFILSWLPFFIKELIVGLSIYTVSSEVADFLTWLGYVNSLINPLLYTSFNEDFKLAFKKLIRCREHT
Experiment: Radioligand binding, 5HT1E receptor ([3H]-serotonin)
Conditions: read-out: h5HT1E Ki; Table 7
measure_name: pKi
One number for each entry, as −log10 of the molar value.

The compound identified as COC[C@@H]1[C@@H](c2ccccc2)OCCN1c1nc(Nc2ccc(C)cc2)cc(N2CCCCC2)n1 registered its pKi at 4.62

====

Target: 5HT transporter (Rattus norvegicus, UniProt P31652)
Sequence (P31652 whole entry): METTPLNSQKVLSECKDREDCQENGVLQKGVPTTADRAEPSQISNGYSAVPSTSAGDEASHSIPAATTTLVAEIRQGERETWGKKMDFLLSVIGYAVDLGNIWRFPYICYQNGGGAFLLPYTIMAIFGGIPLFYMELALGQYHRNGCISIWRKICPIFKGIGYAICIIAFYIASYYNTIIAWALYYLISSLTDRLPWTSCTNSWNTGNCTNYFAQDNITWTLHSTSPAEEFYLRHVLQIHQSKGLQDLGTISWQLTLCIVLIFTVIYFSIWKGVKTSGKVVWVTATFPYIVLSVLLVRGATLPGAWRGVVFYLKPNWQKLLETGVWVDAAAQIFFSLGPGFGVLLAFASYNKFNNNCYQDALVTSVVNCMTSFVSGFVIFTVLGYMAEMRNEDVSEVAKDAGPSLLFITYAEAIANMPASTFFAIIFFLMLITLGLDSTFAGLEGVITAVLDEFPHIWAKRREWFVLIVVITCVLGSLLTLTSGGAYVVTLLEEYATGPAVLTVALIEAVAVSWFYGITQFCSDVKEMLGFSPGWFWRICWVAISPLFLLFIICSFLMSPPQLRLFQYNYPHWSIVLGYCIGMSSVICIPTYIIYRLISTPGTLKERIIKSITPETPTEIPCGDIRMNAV
Assay: Binding at native 5HT transporter
Settings: Table 7; native transporter, head prints r (rat); read-out: r5HT Uptk Ki
pKi: −log10 of the molar value.
Kind request: treat 5 as inclusive, so pKi at 5 or higher is Fulfilled, anything lower is Not fulfilled.

O=C1C(=Nc2ccc(Cl)cc2)c2ccccc2N1c1ccccc1    Not fulfilled
CN(CCc1c[nH]c2ccccc12)c1nc(Nc2ccc(F)c(F)c2)cc(N2CCCCC2)n1    Fulfilled
Cc1ccc(Nc2cc(N(C)C)nc(N(C)CCc3c[nH]c4ccccc34)n2)cc1    Fulfilled
O=C1C(=Nc2ccc(C(F)(F)F)cc2)c2ccccc2N1c1ccccc1    Not fulfilled
Cc1ccc(Nc2cc(N3CCCCC3)nc(N3CCN(c4ncccc4C(F)(F)F)CC3)n2)cc1    Not fulfilled

Switching to the query record.
Inquiry: Check the entry O=C1C(=Nc2ccc(Br)cc2)c2ccccc2N1c1ccccc1 : does pKi equal or exceed 5?
Reply text: Not fulfilled

====

Target: human GAL3 receptor (Homo sapiens)
Construct: expressed in transfected cells
Sequence (O60755 whole entry): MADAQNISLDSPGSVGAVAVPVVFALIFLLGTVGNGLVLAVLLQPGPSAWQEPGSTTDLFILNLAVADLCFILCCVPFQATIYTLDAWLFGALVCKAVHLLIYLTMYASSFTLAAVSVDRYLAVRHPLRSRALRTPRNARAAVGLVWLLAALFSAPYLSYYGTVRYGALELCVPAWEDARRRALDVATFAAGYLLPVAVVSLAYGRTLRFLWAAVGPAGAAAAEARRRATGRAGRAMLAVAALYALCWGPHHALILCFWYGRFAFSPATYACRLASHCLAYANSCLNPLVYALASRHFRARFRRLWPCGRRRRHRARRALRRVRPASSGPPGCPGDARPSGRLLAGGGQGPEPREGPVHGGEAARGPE
Assay: Radioligand binding at cloned human GAL3 receptor
Conditions: pyrimidines, cloned human receptor; read-out: Ki GalR3
measure_name: pKi
Give bare numbers, as −log10 of the molar value.

The examples below pair each entry with its known result.
CN(C)c1cc(NC2CCCCCCC2)nc(N2CCN(Cc3ccccc3)CC2)n1    7.04
Cc1ccc(Nc2cc(N(C)C)nc(N3CCOCC3c3ccccc3)n2)cc1 (stereo not shown)    6.63
CN(C)c1cc(NC2CCC(OCc3ccccc3)CC2)nc(N2CCN(Cc3ccccc3)CC2)n1 (stereo not shown)    6.76
COc1cccc(Nc2cc(N(C)C)nc(N3CCN(c4ccccc4C(F)(F)F)CC3)n2)c1    6.57
Cc1ccc(Nc2cc(N(C)C)nc(N3CCN(c4ccccn4)CC3)n2)cc1C    6.82
CN(C)c1cc(Nc2cccc(I)c2)nc(N2CCN(c3ccccn3)CC2)n1    6.61
COc1cccc(Nc2cc(N(C)C)nc(NCCc3ccccc3)n2)c1    6.71
Cc1ccc(Nc2cc(N3CCCCC3)nc(N3CCN(c4c(C(F)(F)F)ccc[n+]4[O-])CC3)n2)cc1    6.41

Need pKi for each of these compounds.
1. CN(C)c1cc(Nc2ccc(Cl)cc2Cl)nc(N2CCN(c3ccccn3)CC2)n1
2. CN(C)c1cc(Nc2ccc(C(F)(F)F)cc2Cl)nc(N2CCN(c3ccccn3)CC2)n1
3. Cc1ccc(Nc2cc(N3CCCCC3)nc(N(C)c3ccc(C)cc3)n2)cc1
4. COc1ccc(CN2CCN(c3nc(Nc4ccc(C)cc4)cc(N(C)C)n3)CC2)cc1
5. CC(C)c1cccc(Nc2cc(N(C)C)nc(N3CCN(c4ccccn4)CC3)n2)c1
6. C[C@H]1[C@H](Nc2cc(N(C)C)nc(N3CCN(Cc4ccccc4)CC3)n2)C[C@@H]2C[C@@H]1C2(C)C
7. COc1cccc(Nc2cc(N(C)C)nc(N3CCN(Cc4cccs4)CC3)n2)c1
8. COc1cccc(Nc2cc(N3CCCCC3)nc(N(C)CCc3c[nH]c4ccccc34)n2)c1

Reply text:
1. 6.71
2. 7.60
3. 6.75
4. 6.94
5. 7.12
6. 7.33
7. 6.86
8. 7.06

Need pKi for each of these compounds.
1. CN(C)c1cc(Nc2ccc3c(c2)OCO3)nc(N2CCN(c3ccccn3)CC2)n1
2. CN(C)c1cc(Nc2cncc3ccccc23)nc(N2CCN(c3ccccn3)CC2)n1

Reply text:
1. 6.29
2. 6.18

Need pKi for each of these compounds.
1. COc1ccccc1CN1CCN(c2nc(Nc3ccc(C)cc3)cc(N(C)C)n2)CC1
2. COc1ccc(CCNc2nc(Nc3ccc(C)cc3)cc(N(C)C)n2)cc1
3. COc1cccc(Nc2cc(N(C)C)nc(N3CCN(C4CCCCC4)CC3)n2)c1
4. COc1cccc(Nc2cc(N(C)C)nc(N3CCN(Cc4ccccn4)CC3)n2)c1
5. FC(F)(F)c1cccnc1N1CCN(c2nc(NC3CC4CCC3C4)cc(N3CCCCC3)n2)CC1 (stereo not shown)
6. COc1cccc(Nc2cc(N(C)C)nc(N3CCN(c4ccc(Br)cn4)CC3)n2)c1
7. Cc1ccc(Nc2cc(N3CCCCC3)nc(N3CCN(c4ccccc4)CC3)n2)cc1

Reply text:
[7.25, 6.81, 6.30, 6.28, 7.03, 6.84, 6.26]
